# Protocol description: Mouse liver microsome stability assay
# Format: in vitro ADME
# Settings: male, CD1, mouse, microsomes, pH 7.4
# log10 half-life at 0.5 μM listing for each entry below
Recall that a logarithmic scale is used here: each number is log10 of half-life at 0.5 μM in min.

CCCS(=O)(=O)Nc1ccc(Oc2ccc(C#N)cc2)c(-c2cn(C)c(=O)c3[nH]ccc23)c1 [Example 93]	1.40
Cn1cc(-c2cc(NS(C)(=O)=O)ccc2Oc2ccc(F)cc2F)c2cc[nH]c2c1=O [Example 27]	1.77
CC(COC(C)(C)C)Oc1ccc(S(C)(=O)=O)cc1-c1cn(C)c(=O)c2[nH]ccc12 (centres unmarked) [Example 229]	0.95
Cn1cc(-c2cc(CN3CCCC3)ccc2OCC2CC2)c2cc[nH]c2c1=O [Example 314]	0.78
CCCS(=O)(=O)Nc1ccc(Oc2c(F)cc(F)cc2F)c(-c2cn(C)c(=O)c3[nH]ccc23)c1 [Example 94]	1.40
Cn1cc(-c2cc(S(C)(=O)=O)ccc2Oc2ccc(F)cc2F)c2cc(CNc3ccccc3)[nH]c2c1=O [Example 282]	0.85
Cn1cc(-c2cc(NS(C)(=O)=O)ccc2OC2CCCCC2)c2cc[nH]c2c1=O [Example 57]	0.70

Value of log10 half-life at 0.5 μM reported for the compound Cn1cc(-c2cc(S(C)(=O)=O)ccc2Oc2cccc(Cl)c2)c2cc[nH]c2c1=O [Example 153] is 1.04

----------
# Assayed target: human BRD4 second bromodomain (BDII_E352-M457) (Homo sapiens (Human), UniProt O60885)
# Protocol description: TR-FRET bromodomain binding assay, BRD4 second bromodomain
pKi: −log10 of the molar value.
Tick label 1 if pKi is 8 or greater. Tick label 0 if pKi is less than 8.

Use these answered entries as a reference point.
Cn1cc(-c2cc(S(C)(=O)=O)ccc2Oc2ccc(F)cc2F)c2cc(C(=O)Nc3nccs3)[nH]c2c1=O [Example 257]	label 1
CNS(=O)(=O)Nc1ccc(Oc2ccc(F)cc2F)c(-c2cn(C)c(=O)c3[nH]ccc23)c1 [Example 65]	label 1

Q: Decide: pKi of COCCS(=O)(=O)Nc1ccc(Oc2ccc(F)cc2F)c(-c2cn(C)c(=O)c3[nH]ccc23)c1 [Example 236] >= 8?
A: label 1

Q: Decide: pKi of CCNC(=O)c1ccc(Oc2ccccc2)c(-c2cn(C)c(=O)c3[nH]ccc23)c1 [Example 13] >= 8?
A: label 1

Q: Decide: pKi of CCS(=O)(=O)Nc1ccc(OCc2cc(C)nn2C)c(-c2cn(C)c(=O)c3[nH]ccc23)c1 [Example 143] >= 8?
A: label 0

Q: Decide: pKi of CCS(=O)(=O)c1ccc(O[C@H]2CC[C@@H](O)CC2)c(-c2cn(C)c(=O)c3[nH]ccc23)c1 [Example 202] >= 8?
A: label 1

Q: Decide: pKi of CCS(=O)(=O)Nc1ccc(Oc2ccc(F)cc2F)c(-c2cn(C)c(=O)c3[nH]cc(CN4CCN(C)CC4)c23)c1 [Example 351] >= 8?
A: label 0

----------
# Protocol description: Human liver microsome stability assay
# Format: in vitro ADME
# Settings: both sexes, human, microsomes, pH 7.4
Endpoint: half-life at 0.5 μM (min)
Supply the numeric figure in min, leaving out any unit text.

Sample answers from the record:
CNS(=O)(=O)Nc1ccc(Oc2ccc(F)cc2F)c(-c2cn(C)c(=O)c3[nH]ccc23)c1	88
Cn1cc(-c2ccccc2Cc2ccccc2)c2cc[nH]c2c1=O	13

Value of half-life at 0.5 μM reported for the molecule Cn1cc(-c2cc(NS(C)(=O)=O)ccc2Oc2ccccc2)c2cc(C(N)=O)[nH]c2c1=O is 36
